# assaySystem: T1, PCSK9 ProCat (31-449 of SEQ ID NO: 3) (human, UniProt Q8NBP7 27-449)
# T1 construct: From PCSK9 449TEV after rTEV cleavage: GAMG-PCSK9 (31-449)-ENLYFQ; Written as one chain; autocatalysis between 152 and 153 splits pro-domain and catalytic domain; also called procat PCSK9; PCSK9 31-449
# runDescription: domain binding ELISA (coated antibody captures the PCSK9 form; OD650)

binder: 30A4 (antibody, V domains shown) VH: QVQLVESGGGVVQPGRSLRLSCAASGFTFSSYGMHWVRQAPGKGLEWVAVIWYDGSDKYYADSVKGRFTISRDNSKNTLYLQMNSLRAEDTAVYYCARETGPLKLYYYGMDVWGQGTTVTVSS VL: DIVMTQSPLSLSVTPGEPPSISCRSSQSLLHSNGYNFLNWYLQKPGQSPQLLIYLGSHRASGVPDRFSGSGSGTDFTLEISRVEAEDVGVYYCMQVLQTPFTFGPGTKVDIK
binding result: binds

binder: 19H9 (antibody, V domains shown, also called 19H9.2) VH: QVQLVQSGAEVKKPGASVKVSCKASGYALTSYGISWVRQAPGQGLEWMGWISAYNGNTNYAQKVQGRVTMTTDTSTSTVYMELRSLRSDDTAVYYCARGYGMDVWGQGTTVTVSS VL: QSALTQPASVSGSPGQSITISCTGTNSDVGGYNSVSWYQQHPGKPPKLMIYEVSNRPSGISNRFSGSKSGNTASLTISGLQAEDEADYFCSSYTSTSMVFGGGTKLTVL
binding result: binds
